Data provenance: PubChem BioAssay (Tox21)

- assayComment: qHTS assay for small molecules that induce genotoxicity in human embryonic kidney cells expressing luciferase-tagged ATAD5 - cell viability (AID 651634); also: nearly all actives have a fitted effect of over 25% in size
- testParameters: HEK293T ATAD5-luc cells viability, CellTiter-Fluor, 15.5 h; series mostly up to 83.3 µM
Inconclusive results are not listed. Activity calls are given as the source filed them. Calls follow the shape of the full dose curve. Non-standard residues stand in square brackets, D forms with d. Residues, ends and D or L forms follow the SMILES beside them. pGlu = O=C1CC[C@@H](C(=O)O)N1; Thz = O=C(O)[C@@H]1CSCN1
The reply should be one of these categories: active, inactive

COc1cc(C[C@@H]2NCCc3cc(O)c(O)cc32)cc(OC)c1OC = inactive
CC#CCC(C)[C@H](O)/C=C/[C@@H]1[C@H]2C/C(=C/CCCC(=O)O)C[C@H]2C[C@H]1O (stereo partly drawn) = inactive
O=S(O)CNc1ccc(S(=O)(=O)c2ccc(NCS(=O)O)cc2)cc1 = inactive

Per the records of this test, what outcome belongs to O=C1CC[C@@H](C(=O)N2CSC[C@H]2C(=O)O)N1 ([pGlu]-[Thz]-OH) ?
inactive

Assay outcome for NCCC[C@H](N)C(=O)O : what was it?
inactive

====

- assayComment: qHTS assay to identify small molecule antagonists of the estrogen receptor alpha (ER-alpha) signaling pathway - cell viability counter screen (AID 743074);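 also: HEK293 cells carrying ER-alpha-UAS-bla reporter stimulated with 17beta-estradiol; nearly all actives have a fitted effect of over 45% in size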
- testParameters: ERalpha-bla HEK293 viability, CellTiter-Glo luminescence, 18 h; series mostly up to 69.4 µM
Inconclusive results are not listed. Activity calls are given as the source filed them. The call rests on the fitted dose curve.
Answer with one of the outcomes given here: active, inactive

O.O=C([O-])CC([S-])C(=O)[O-].[Au+].[Na+].[Na+] (stereo not given) = inactive
CC(CN1c2ccccc2Sc2ccc(S(=O)(=O)N(C)C)cc21)N(C)C (stereo not given) = inactive
C=C1/C(=C\C=C2/CCC[C@]3(C)[C@@H]([C@H](C)OCCC(C)(C)O)CC[C@@H]23)C[C@@H](O)C[C@@H]1O = inactive

Field: outcome | Entry: CCC(=O)Oc1ccc2c(c1)CC[C@@H]1[C@@H]2CC[C@]2(C)[C@@H](OC(=O)CC)CC[C@@H]12
inactive

====

- assayComment: qHTS assay for identifying genotoxic compounds that show differential cytotoxicity against isogenic chicken DT40 cell lines with known DNA damage response pathways - wild type cell line (AID 743012); also: nearly all actives have a fitted effect of over 60% in size
- testParameters: DT40 wild type chicken cells viability, CellTiter-Glo, 40 h; series mostly up to 68.4 µM
Inconclusive results are not listed. Activity calls are given as the source filed them. Calls follow the shape of the dose curve; as a rule, active = well fitted cell-killing curve with a large enough effect in the repeat runs; inconclusive = weak or mixed curves, or effect the other way; inactive = no such curve, though single readings can be large or run the other way.
Please state which outcome applies, choosing from YES = active, NO = inactive

Nc1ncnc(Nc2ccc(Cl)cc2)n1 = NO
Nc1c(Br)cc(Br)cc1CNC1CCC(O)CC1 (stereo not given) = NO
NCCCNCCCCNC(=O)C(O)NC(=O)CCCCCCN=C(N)N (stereo not given) = YES

Please let me know the test result on file for CS(=O)(=O)NC(=O)CCC/C=C\C[C@H]1C(=O)C[C@@H](O)[C@@H]1/C=C/[C@H](O)COc1ccccc1 .
NO

Call for entry CCCCCc1ccc(C)cc1O :
NO

Which outcome did this test record for the molecule NNc1nnc(Cc2ccncc2)c2ccccc12 ?
NO

What did this assay record as the result for CC1CCC(NC(=O)N(CCCl)N=O)CC1 (stereo not given) ?
NO

# lookup: test call for COc1ccc(CC2c3cc(OC)c(OC)cc3CC[N+]2(C)CCC(=O)OCCCCCOC(=O)CC[N+]2(C)CCc3cc(OC)c(OC)cc3C2Cc2ccc(OC)c(OC)c2)cc1OC (stereo not given)
NO

For this molecule, state the assay outcome: CO[C@@H]1[C@@H](O[C@@H]2O[C@H](C)[C@@H](O[C@H]3C[C@@](C)(O)[C@@H](O)[C@H](C)O3)[C@H](N(C)C)[C@H]2O)[C@@H](CC=O)C[C@@H](C)[C@@H](O[C@@H]2CC[C@H](N(C)C)[C@@H](C)O2)/C=C/C=C/C[C@@H](C)OC(=O)C[C@H]1O
NO

Look up the recorded call for CCC(=O)OCC(=O)[C@@]1(OC(=O)CC)[C@H](C)C[C@H]2[C@@H]3CCC4=CC(=O)C=C[C@]4(C)[C@@]3(F)[C@@H](O)C[C@@]21C in this test.
YES

Please let me know the test result on file for CCOc1ccc(N=Nc2ccc(N)cc2N)cc1 .
YES

Please indicate how the test categorized FCOC(C(F)(F)F)C(F)(F)F .
NO

Can you look up the reported call for C/C=C1\NC(=O)[C@H]2CSSCC/C=C/[C@H](CC(=O)N[C@H](C(C)C)C(=O)N2)OC(=O)C(C(C)C)NC1=O (stereo not given in full) for me?
YES

Hi team, can someone confirm the assay call for OC[C@@H](O)C(O)[C@H](O)CO ?
NO

// param item: CN1CCN(CCCN2c3ccccc3Sc3ccccc32)CC1 ; yields the recorded call
YES

Please indicate how the test categorized CCCOc1ccc2nc(NC(=O)OC)sc2c1 .
YES

Test call, this molecule: Cn1c(O)c(N=NC(N)=S)c2ccccc21
YES

Assay outcome for CNC[C@@H]1CC[C@@H](N)[C@@H](O[C@H]2[C@H](O)[C@@H](O[C@H]3OC[C@](C)(O)[C@H](NC)[C@H]3O)[C@H](N)C[C@@H]2N)O1 : what was it?
NO

I would be grateful if you could indicate the recorded call for COc1ccc(C[C@H](C)NC[C@@H](O)c2ccc(O)c(NC=O)c2)cc1 .
YES

====

- assayComment: qHTS assay to identify small molecule antagonists of the thyroid receptor (TR) signaling pathway - cell viability counter screen (AID 743064); also: nearly all actives have a fitted effect of over 50% in size
- testParameters: GH3.TRE-Luc viability, CellTiter-Fluor, 24 h; series mostly up to 70.3 µM
Records with an inconclusive call do not appear. Calls of active or inactive are those of the source. Calls come from the whole dose curve; as a rule, active = well fitted cell-killing curve with a large enough effect in the repeat runs; inconclusive = weak or mixed curves, or effect the other way; inactive = no such curve, though single readings can be large or run the other way.
Allowed answers: Yes (active), No (inactive)

CCOC(=O)[C@H](CCc1ccccc1)N[C@H]1CCCN2CCC[C@@H](C(=O)O)N2C1=O = No

Fill in: this test's call for FCOC(C(F)(F)F)C(F)(F)F is ___
No

What was the test verdict on CC[C@H]1OC(=O)[C@H](C)[C@@H](O[C@H]2C[C@@](C)(OC)[C@@H](O)[C@H](C)O2)[C@H](C)[C@@H](O[C@@H]2O[C@H](C)C[C@H](N(C)C)[C@H]2O)[C@](C)(O)C[C@@H](C)[C@@H]2N[C@@H](COCCOC)O[C@@H]([C@H]2C)[C@]1(C)O ?
No

Could you please tell me the result logged for CN1CCN(C2=Nc3ccccc3Cc3ccccc32)CC1 in this assay?
Yes

Test call for this compound, please: N[C@H](CC(=O)O)C(=O)O
No

Kindly provide the recorded test outcome for the following compound: COc1ccc(C2(C#N)CCC(C(=O)O)CC2)cc1OC1CCCC1 (stereo not given)
No

Test call, this compound: CC1(C)S[C@@H]2[C@H](NC(=O)Cc3ccccc3)C(=O)N2[C@H]1C(=O)O
No

Short answer needed: outcome of this test for O=C(O)c1nc(=O)[nH]c(=O)[nH]1 ?
No

# lookup: test call for C[C@@](Cc1ccc(O)c(O)c1)(NN)C(=O)O
No

Test call for this compound, please: C=CCCCCCCCCC(=O)OC
No

Called result for C[N+](C)(CCCCCC[N+](C)(C)C1c2ccccc2-c2ccccc21)C1c2ccccc2-c2ccccc21
No

What did this assay record as the result for O=S(=O)(O)CCCS(=O)(=O)O ?
No

Returns: the outcome recorded for NCc1ccccc1CC(=O)N[C@@H]1C(=O)N2C(C(=O)O)=C(CSc3nnnn3CC(=O)O)CS[C@H]12 in this assay.
No

How did this test come out for COc1cc(/C=C/C(=O)N2CCN(CC(=O)N3CCCC3)CC2)cc(OC)c1OC ?
No

Assay outcome for COc1ccc(C2NC(=S)N3C(c4ccc(OC)c(OC)c4)NC(=S)N23)cc1OC (stereo not given) : what was it?
Yes

====

- assayComment: qHTS assay for identifying genotoxic compounds that show differential cytotoxicity against isogenic chicken DT40 cell lines with known DNA damage response pathways - wild type cell line (AID 743012); also: nearly all actives have a fitted effect of over 60% in size
- testParameters: DT40 wild type chicken cells viability, CellTiter-Glo, 40 h; series mostly up to 68.4 µM
Records with an inconclusive call do not appear. Calls of active or inactive are those of the source. Calls come from the whole dose curve; as a rule, active = well fitted cell-killing curve with a large enough effect in the repeat runs; inconclusive = weak or mixed curves, or effect the other way; inactive = no such curve, though single readings can be large or run the other way. Positions of bridges follow the written chain, without caps; N, C: chain ends. Non-standard residues stand in square brackets, D forms with d. Residues, ends and D or L forms follow the SMILES beside them. *: point of attachment. X2 = CC[C@H](C)CCCCC(=O)*; Dab = NCC[C@H](N)C(=O)O
// one of active, inactive, no free text

Recorded results for 3 molecules are shown here.
C#CCC(Cc1cnc2nc(N)nc(N)c2n1)c1ccc(C(=O)N[C@@H](CCC(=O)O)C(=O)O)cc1 (stereo not given in full) = active
COc1cc(-c2ccc(-[n+]3nc(-c4ccccc4)nn3-c3ccc([N+](=O)[O-])cc3)c(OC)c2)ccc1-[n+]1nc(-c2ccccc2)nn1-c1ccc([N+](=O)[O-])cc1 = active
CN1CCC(OC(=O)C(Oc2ccc(Cl)cc2)Oc2ccc(Cl)cc2)CC1 = inactive

What outcome does the record of this test show for CC(CCc1ccc(O)cc1)NCC(O)c1ccc(O)cc1 (stereo not given) ?
inactive

State the result this test recorded for CC[C@H](C)CCCCC(=O)N[C@@H](CCN)C(=O)N[C@H](C(=O)N[C@@H](CCN)C(=O)N[C@H]1CCNC(=O)[C@@H]([C@H](C)O)NC(=O)[C@H](CCN)NC(=O)[C@H](CCN)NC(=O)[C@H](CC(C)C)NC(=O)[C@@H](CC(C)C)NC(=O)[C@H](CCN)NC1=O)[C@@H](C)O (X2-[Dab]T[Dab][Dab][Dab][dL]L[Dab][Dab][dT]; lactam 4-C) .
inactive
